Experiment: Clearance in rat at 1 mg/kg, iv and 10 mg/kg, po
Type: ADME, organism-based
Conditions: in vivo

| molecule_smiles | unit_string | clearance |
| --- | --- | --- |
| O=C(Nc1nc(C(F)(F)F)co1)C1c2cccc(F)c2Oc2c(F)cccc21 | mL/min/kg | 3.79 |

###

Experiment: Clearance in rat at 3 mg/kg, iv and 6 mg/kg, po
Type: ADME, organism-based
Details: in vivo

| molecule_smiles | clearance / mL/min/kg |
| --- | --- |
| O=C(Nc1nc(C(F)(F)F)co1)C1c2cc(F)ccc2Oc2ccc(F)cc21 | 7.4 |

###

Target: Metabotropic glutamate receptor 1 (Rattus norvegicus, UniProt P23385)
Sequence (P23385 whole entry): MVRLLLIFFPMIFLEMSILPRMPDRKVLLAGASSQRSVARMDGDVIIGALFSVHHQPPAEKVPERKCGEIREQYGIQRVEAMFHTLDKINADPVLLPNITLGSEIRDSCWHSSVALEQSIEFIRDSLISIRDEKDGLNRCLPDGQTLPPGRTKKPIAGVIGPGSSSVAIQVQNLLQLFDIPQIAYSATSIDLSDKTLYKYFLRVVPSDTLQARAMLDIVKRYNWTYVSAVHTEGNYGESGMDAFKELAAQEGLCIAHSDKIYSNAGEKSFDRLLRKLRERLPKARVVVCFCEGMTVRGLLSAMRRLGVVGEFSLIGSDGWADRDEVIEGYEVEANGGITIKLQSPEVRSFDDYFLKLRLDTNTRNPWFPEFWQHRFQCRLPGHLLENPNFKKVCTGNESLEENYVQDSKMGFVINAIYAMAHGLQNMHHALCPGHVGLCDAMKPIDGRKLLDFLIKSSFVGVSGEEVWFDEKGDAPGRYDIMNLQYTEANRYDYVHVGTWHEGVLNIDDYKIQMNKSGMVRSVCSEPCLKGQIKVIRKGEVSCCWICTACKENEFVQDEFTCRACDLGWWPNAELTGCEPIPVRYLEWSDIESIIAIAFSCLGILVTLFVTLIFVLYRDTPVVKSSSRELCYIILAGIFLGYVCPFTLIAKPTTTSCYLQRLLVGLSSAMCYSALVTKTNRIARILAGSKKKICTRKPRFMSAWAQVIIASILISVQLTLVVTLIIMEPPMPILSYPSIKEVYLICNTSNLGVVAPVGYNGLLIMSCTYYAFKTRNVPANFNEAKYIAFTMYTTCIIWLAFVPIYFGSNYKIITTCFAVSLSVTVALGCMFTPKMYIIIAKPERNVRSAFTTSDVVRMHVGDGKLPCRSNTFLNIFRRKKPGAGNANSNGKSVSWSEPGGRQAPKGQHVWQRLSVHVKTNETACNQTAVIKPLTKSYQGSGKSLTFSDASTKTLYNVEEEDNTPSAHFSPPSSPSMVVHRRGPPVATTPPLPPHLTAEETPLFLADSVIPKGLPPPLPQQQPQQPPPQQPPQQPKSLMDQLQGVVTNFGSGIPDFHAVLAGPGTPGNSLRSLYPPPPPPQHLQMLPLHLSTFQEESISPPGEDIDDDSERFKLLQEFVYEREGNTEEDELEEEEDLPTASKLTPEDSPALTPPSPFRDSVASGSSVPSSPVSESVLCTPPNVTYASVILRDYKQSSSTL
Experiment: Agonist activity at rat mGlu1 receptor expressed in HEK293 cells assessed as increase in intracellular calcium by FLIPR assay
Type: functional, cell-based
Conditions: read-out: EC50
endpoint_name: EC50 (nM)

| compound | endpoint_name | observed_result |
| --- | --- | --- |
| Cc1nc(NC(=O)C2c3ccccc3Oc3ccccc32)no1 | EC50 | 52 |
| O=C(Nc1nc(C(F)(F)F)co1)C1c2cccc(F)c2Oc2c(F)cccc21 | EC50 | 47 |
| O=C(Nc1ncc(C(F)(F)F)o1)C1c2ccccc2Oc2ccc(F)cc21 (racemic) | EC50 | 20 |
| O=C(Nc1nc(C(F)(F)F)co1)C1c2ccccc2Oc2c(F)cccc21 (racemic) | EC50 | 19 |
| O=C(Nc1nc(C(F)(F)F)co1)C1c2ccccc2Oc2cc(F)ccc21 (racemic) | EC50 | 40 |
| O=C(Nc1ncc(C(F)(F)F)o1)C1c2cccc(F)c2Oc2c(F)cccc21 | EC50 | 25 |
| O=C(Nc1nc(C(F)(F)F)co1)C1c2ccccc2Oc2ccc(F)cc21 (racemic) | EC50 | 40 |

###

Assay: Cmax in rat plasma at 6 mg/kg, po
Assay type: ADME, organism-based
Set-up: dose 6 mg/kg, route oral

| molecule_smiles | Cmax, ng/mL |
| --- | --- |
| O=C(Nc1nc(C(F)(F)F)co1)C1c2cc(F)ccc2Oc2ccc(F)cc21 | 1810 |

###

# pEC50 listing for each entry below
Molecular target: UniProtKB P23385
Experiment: Agonist activity at rat mGlu1 receptor expressed in CHO cells assessed as potentiation of glutamate-activated K+ currents by electrophysiology
pEC50: −log10 of the molar value.

| molecule | pEC50 |
| --- | --- |
| O=C(Nc1nc(C(F)(F)F)co1)C1c2ccccc2Oc2c(F)cccc21 (racemic) | 6.99 |
| O=C(Nc1ncc(C(F)(F)F)o1)C1c2ccccc2Oc2ccc(F)cc21 (racemic) | 7.17 |
| O=C(Nc1nc(C(F)(F)F)co1)C1c2cccc(F)c2Oc2c(F)cccc21 | 6.79 |
| O=C(Nc1nc(C(F)(F)F)co1)C1c2cc(F)ccc2Oc2ccc(F)cc21 | 7.05 |
| O=C(Nc1ncc(C(F)(F)F)o1)C1c2ccccc2Oc2c(F)cccc21 (racemic) | 6.88 |

###

Experiment: Half life in rat at 10 mg/kg, iv and po
Type: ADME, organism-based
Set-up: dose 10 mg/kg, route oral
Settings: in vivo
endpoint_name: half-life (min)

| molecule_smiles | endpoint_name | observed_result |
| --- | --- | --- |
| Cc1nc(NC(=O)C2c3ccccc3Oc3ccccc32)no1 | half-life | 19.2 |
| O=C(Nc1nc(C(F)(F)F)co1)C1c2ccccc2Oc2ccccc21 | half-life | 54.6 |
